Test system: hPIV-3 strain C243
Experiment: In situ ELISA virus growth inhibition in LLC-MK2 cells
Assay type: cell-based
Conditions: Human respirovirus 3, LLC-MK2; hPIV-3 strain C243; Table 1
Consider the following compounds; for each one, report its pIC50.
Note on pIC50: it is the negative log10 of concentration, concentration in mol/L.

Answer with the recorded pIC50 for the compound listed here: O=C(O)C1=C[C@H](n2nnc3c4ccccc4ccc32)[C@@H](NC(=O)C(F)(F)F)[C@H]([C@H](O)[C@H](O)CO)O1
5.73

Identify pIC50 associated with the compound CC(=O)N[C@H]1[C@H]([C@H](O)[C@H](O)CO)OC(C(=O)O)=C[C@@H]1n1cc(-c2ccccc2NC(=O)CCCCCCCCCCC(=O)Nc2ccccc2-c2cn([C@H]3C=C(C(=O)O)O[C@@H]([C@H](O)[C@H](O)CO)[C@@H]3NC(C)=O)nn2)nn1
4.75

---

Test system: hPIV-1 strain C35
Experiment: In situ ELISA virus growth inhibition
Type: cell-based
Conditions: hPIV1 C35
pIC50: −log10 of the molar value.
Value Type: pIC50

Return pIC50 for the following compound: CC(=O)N[C@H]1[C@H]([C@H](O)[C@H](O)CO)OC(C(=O)O)=C[C@@H]1n1cc(-c2ccccc2NC(=O)CNS(=O)(=O)c2ccc([N+](=O)[O-])cc2)nn1
< 3.70

---

Give measured IC50 for each item. Keep answers brief.
System: hPIV-3 strain JS
Assay: Haemagglutination inhibition (HI) assay with human red blood cells
Format: biochemical
Details: hPIV3 JS
Write the value in µM as a bare number.

Give reported IC50 value for CC(=O)N[C@H]1[C@H]([C@H](O)[C@H](O)CO)OC(C(=O)O)=C[C@@H]1n1cc(-c2ccccc2NC(=O)CNC(=O)c2ccc(N(C)C)cc2)nn1
14

Supply reported IC50 belonging to this molecule: CC(=O)N[C@H]1[C@H]([C@H](O)[C@H](O)CO)OC(C(=O)O)=C[C@@H]1n1cc(-c2ccccc2NC(=O)CNC(=O)c2ccccc2)nn1
20

Consider the molecule CC(=O)Nc1ccccc1-c1cn([C@H]2C=C(C(=O)O)O[C@@H]([C@H](O)[C@H](O)CO)[C@@H]2NC(C)=O)nn1 and give its recorded IC50.
40

Return IC50 (reported value) for this molecule: CC(=O)N[C@H]1[C@H]([C@H](O)[C@H](O)CO)OC(C(=O)O)=C[C@@H]1n1cc(-c2ccccc2NC(=O)CCNS(=O)(=O)c2ccc([N+](=O)[O-])cc2)nn1
38.5

---

Biological target: hPIV-3 strain C243 neuraminidase (UniProt P08492, species not given/STRAIN_C243)
Sequence (P08492 whole entry, change not shown): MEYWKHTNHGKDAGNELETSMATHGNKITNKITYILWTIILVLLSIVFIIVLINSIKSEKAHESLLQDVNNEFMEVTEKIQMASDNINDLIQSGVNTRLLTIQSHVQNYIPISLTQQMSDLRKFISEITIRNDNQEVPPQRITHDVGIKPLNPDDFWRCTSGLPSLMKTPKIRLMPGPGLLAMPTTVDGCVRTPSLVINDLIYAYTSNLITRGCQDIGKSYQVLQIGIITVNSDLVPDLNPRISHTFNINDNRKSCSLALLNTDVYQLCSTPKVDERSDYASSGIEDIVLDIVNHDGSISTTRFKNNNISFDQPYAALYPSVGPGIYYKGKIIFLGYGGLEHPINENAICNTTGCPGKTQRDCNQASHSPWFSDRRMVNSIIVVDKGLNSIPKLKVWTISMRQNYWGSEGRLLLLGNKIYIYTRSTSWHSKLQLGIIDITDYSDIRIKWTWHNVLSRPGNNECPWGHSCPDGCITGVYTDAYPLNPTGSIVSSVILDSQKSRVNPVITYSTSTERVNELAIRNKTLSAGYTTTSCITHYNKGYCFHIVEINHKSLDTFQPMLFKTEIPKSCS
Type: biochemical
Conditions: hPIV-3 strain C243; Table 1; read-out: NI (IC50)
Value Type: IC50 (µM)
Could you give me the number in µM? Just the number is fine.

Print hPIV-3 strain C243 neuraminidase (UniProt P08492, species not given/STRAIN_C243) IC50 for CC(=O)N[C@H]1[C@H]([C@H](O)[C@H](O)CO)OC(C(=O)O)=C[C@@H]1n1cc(-c2ccccc2NC(=O)CCCCCn2cc(CO)nn2)nn1 .
47.2

State, for hPIV-3 strain C243 neuraminidase (UniProt P08492, species not given/STRAIN_C243), measured IC50 of the compound listed here: CC(=O)N[C@H]1[C@H]([C@H](O)[C@H](O)CO)OC(C(=O)O)=C[C@@H]1n1cc(-c2ccccc2NC(=O)CO)nn1
27.9

Report IC50 under test system hPIV-3 strain C243 neuraminidase (UniProt P08492, species not given/STRAIN_C243) for CC(=O)N[C@H]1[C@H]([C@H](O)[C@H](O)CO)OC(C(=O)O)=C[C@@H]1n1cc2ccccc2n1 .
92.8
